Test: Antiproliferative activity against human RPMI8226 cells measured after 72 hrs by MTS assay
Assay type: functional, cell-based
Details: RPMI-8226, 72 h
result-type: log10(IC50) (log10 of the value in nM)

O=C(Nc1cnccn1)C1CCN(C(=O)N[C@@H](CCc2ccccc2)C(=O)N[C@@H](CCc2ccccc2)C(=O)NCc2ccccc2Cl)CC1 :: 2.29
O=C(Nc1ccccc1)C1CCN(C(=O)N[C@@H](CCc2ccccc2)C(=O)N[C@@H](CCc2ccccc2)C(=O)NCc2ccccc2Cl)CC1 :: 1.27
COc1ccc(NC(=O)C2CCN(C(=O)N[C@@H](CCc3ccccc3)C(=O)N[C@@H](CCc3ccccc3)C(=O)NCc3ccccc3Cl)CC2)cc1 :: 1.93
O=C(Nc1cccnc1)C1CCN(C(=O)N[C@@H](CCc2ccccc2)C(=O)N[C@@H](CCc2ccccc2)C(=O)NCc2ccccc2Cl)CC1 :: 1.14
O=C(Nc1ccccn1)C1CCN(C(=O)N[C@@H](CCc2ccccc2)C(=O)N[C@@H](CCc2ccccc2)C(=O)NCc2ccccc2Cl)CC1 :: 1.39
O=C(Nc1ccc(F)cc1)C1CCN(C(=O)N[C@@H](CCc2ccccc2)C(=O)N[C@@H](CCc2ccccc2)C(=O)NCc2ccccc2Cl)CC1 :: 1.97

====

Assay: Half life in mouse plasma at 2 uM by LC-MS/MS analysis
Format: ADME, cell-free
result-type: half-life at 2 µM (h)

O=C(Nc1cccnc1)C1CCN(C(=O)N[C@@H](CCc2ccccc2)C(=O)N[C@@H](CCc2ccccc2)C(=O)NCc2ccccc2Cl)CC1 :: 7.25

====

Attribute: IC50
Target: Proteasome Macropain subunit MB1 (Homo sapiens)
Sequence (P28074 whole entry): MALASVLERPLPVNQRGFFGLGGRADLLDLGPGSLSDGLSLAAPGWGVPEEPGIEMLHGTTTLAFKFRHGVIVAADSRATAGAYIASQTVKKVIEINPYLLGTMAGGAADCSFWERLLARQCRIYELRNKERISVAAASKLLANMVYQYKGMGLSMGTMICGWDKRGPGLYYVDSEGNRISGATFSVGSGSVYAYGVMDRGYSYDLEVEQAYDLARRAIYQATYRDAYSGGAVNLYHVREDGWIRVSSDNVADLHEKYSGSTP
Experiment: Inhibition of chymotrypsin-like activity of human 20S proteasome preincubated for 15 mins followed by addition of Suc-Leu-Leu-Val-Tyr-AMC as substrate by fluorescence analysis
result-type: IC50 (nM)

C[C@H](NC(=O)N1CCC(C(=O)Nc2cnccn2)CC1)C(=O)N[C@@H](CCc1ccccc1)C(=O)NCc1ccccc1Cl :: 601
C[C@H](NC(=O)N1CCC(NC(=O)c2cnccn2)CC1)C(=O)N[C@@H](CCc1ccccc1)C(=O)NCc1ccccc1Cl :: 670
O=C(Nc1cnccn1)C1CCN(C(=O)N[C@@H](CCc2ccccc2)C(=O)N[C@@H](CCc2ccccc2)C(=O)NCc2ccccc2Cl)CC1 :: 14.7

====

Attribute: inhibition
Molecular target: Proteasome subunit beta type-5 (Mus musculus) (UniProt O55234)
Sequence (O55234 whole entry): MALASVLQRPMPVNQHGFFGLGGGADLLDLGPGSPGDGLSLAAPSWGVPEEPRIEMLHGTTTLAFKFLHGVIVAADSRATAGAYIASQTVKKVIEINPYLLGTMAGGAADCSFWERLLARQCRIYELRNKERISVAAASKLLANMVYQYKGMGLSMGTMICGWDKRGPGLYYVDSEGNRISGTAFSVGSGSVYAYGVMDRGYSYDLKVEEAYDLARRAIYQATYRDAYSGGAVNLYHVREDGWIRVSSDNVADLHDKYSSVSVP
Experiment: Inhibition of chymotrypsin-like activity of 20S proteasome in mouse blood at 0.5 to 12.5 uM preincubated for 40 mins followed by addition of Suc-Leu-Leu-Val-Tyr-AMC as substrate relative to control
Assay type: tissue-based
result-type: inhibition

O=C(Nc1ccccc1)C1CCN(C(=O)N[C@@H](CCc2ccccc2)C(=O)N[C@@H](CCc2ccccc2)C(=O)NCc2ccccc2Cl)CC1 :: > 60%
O=C(Nc1nccs1)C1CCN(C(=O)N[C@@H](CCc2ccccc2)C(=O)N[C@@H](CCc2ccccc2)C(=O)NCc2ccccc2Cl)CC1 :: > 60%
O=C(Nc1ccccn1)C1CCN(C(=O)N[C@@H](CCc2ccccc2)C(=O)N[C@@H](CCc2ccccc2)C(=O)NCc2ccccc2Cl)CC1 :: > 60%
O=C(Nc1cccnc1)C1CCN(C(=O)N[C@@H](CCc2ccccc2)C(=O)N[C@@H](CCc2ccccc2)C(=O)NCc2ccccc2Cl)CC1 :: > 60%
